- Tested on: S. hemolyticus AVHAH 88-3
- Test Summary: MIC, agar dilution
- Type: cell-based
- Details: Streptococcus pyogenes, AVHAH883, 18 h
Counter-ions that a name gives are not always drawn.
For each record, check the reported MIC: if it is below 2 µg/mL write T, else write F.

[
  {
    "Compound": "CN(C)[C@@H]1C(O)=C(C(N)=O)C(=O)[C@@]2(O)C(O)=C3C(=O)c4c(ccc(NC(=O)CNCc5ccccn5)c4O)CC3CC12 (stereo partly shown) [N, dihydrochloride]",
    "Target Entity": "S. hemolyticus AVHAH 88-3",
    "Group Label": "F"
  },
  {
    "Compound": "CN(C)[C@@H]1C(O)=C(C(N)=O)C(=O)[C@@]2(O)C(O)=C3C(=O)c4c(ccc(NC(=O)CNCc5cccs5)c4O)CC3CC12 (stereo partly shown) [L, dihydrochloride]",
    "Target Entity": "S. hemolyticus AVHAH 88-3",
    "Group Label": "F"
  },
  {
    "Compound": "CN(C)[C@@H]1C(O)=C(C(N)=O)C(=O)[C@@]2(O)C(O)=C3C(=O)c4c(ccc(NC(=O)CBr)c4O)CC3CC12 (stereo partly shown) [R, monohydrochloride]",
    "Target Entity": "S. hemolyticus AVHAH 88-3",
    "Group Label": "F"
  },
  {
    "Compound": "CCCCNCC(=O)Nc1ccc2c(c1O)C(=O)C1=C(O)[C@]3(O)C(=O)C(C(N)=O)=C(O)[C@@H](N(C)C)C3CC1C2 (stereo partly shown) [H, dihydrochloride]",
    "Target Entity": "S. hemolyticus AVHAH 88-3",
    "Group Label": "T"
  },
  {
    "Compound": "CC(Br)C(=O)Nc1ccc2c(c1O)C(=O)C1=C(O)[C@]3(O)C(=O)C(C(N)=O)=C(O)[C@@H](N(C)C)C3CC1C2 (stereo partly shown) [S, dihydrochloride]",
    "Target Entity": "S. hemolyticus AVHAH 88-3",
    "Group Label": "F"
  },
  {
    "Compound": "CN(C)[C@@H]1C(O)=C(C(N)=O)C(=O)[C@@]2(O)C(O)=C3C(=O)c4c(ccc(NC(=O)CN5CCCC5)c4O)CC3CC12 (stereo partly shown) [D, dihydrochloride]",
    "Target Entity": "S. hemolyticus AVHAH 88-3",
    "Group Label": "T"
  },
  {
    "Compound": "CC(C(=O)Nc1ccc2c(c1O)C(=O)C1=C(O)[C@]3(O)C(=O)C(C(N)=O)=C(O)[C@@H](N(C)C)C3CC1C2)N1CCCC1 (stereo partly shown)",
    "Target Entity": "S. hemolyticus AVHAH 88-3",
    "Group Label": "F"
  }
]
